Target: T1, human BCMA expressed on the cell surface (human, UniProt Q02223 1-184)
T1 construct: The same molecule is used here for hBCMA-CHO GS cells and for the endogenous BCMA of the myeloma lines; also called Human BCMA CHO-S cell; H929
T1 sequence: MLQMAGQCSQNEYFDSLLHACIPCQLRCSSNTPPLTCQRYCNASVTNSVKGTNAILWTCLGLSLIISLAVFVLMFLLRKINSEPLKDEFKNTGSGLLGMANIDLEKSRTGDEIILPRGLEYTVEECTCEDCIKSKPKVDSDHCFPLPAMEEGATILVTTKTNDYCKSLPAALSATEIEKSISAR
Assay: flow cytometry, 10 nM antibody on human BCMA CHO-S cells
Measured MFI of individual entries
API note: the answer field is a bare number with no unit suffix.

binder	MFI
antibody ADI-38481 (antibody, V domains shown) VH: QVQLVQSGAEVKKPGSSVKVSCKASGGTFSNDVISWVRQAPGQGLEWMGVIIPIFGIANYAQKFQGRVTITADESTSTAYMELSSLRSEDTAVYYCARGRGYYSSWLLDIWGQGTMVTVSS VL: DIQMTQSPSSLSASVGDRVTITCQASQDITNYLNWYQQKPGKAPKLLIYDASNLETGVPSRFSGSGSGTDFTFTISSLQPEDIATYYCQQAFDLITFGGGTKVEIK	2620
antibody ADI-38491 (antibody, V domains shown) VH: QLQLQESGPGLVKPSETLSLTCTVSGGSIVSSSYYWTWIRQPPGKGLEWIGSISIAGSTYYNPSLKSRVTISVDTSKNQFSLKLSSVTAADTAVYYCARDRGDTILDVWGQGTMVTVSS VL: DIQMTQSPSSLSASVGDRVTITCRASQSISRYLNWYQQKPGKAPKLLIYAASSLQSGVPSRFSGSGSGTDFTLTISSLQPEDFATYYCQQKYFDITFGGGTKVEIK	996
antibody ADI-38484 (antibody, V domains shown) VH: QVQLVQSGAEVKKPGSSVKVSCKASGGTFSNDVISWVRQAPGQGLEWMGVIIPIFGIANYAQKFQGRVTITADESTSTAYMELSSLRSEDTAVYYCARGRGYYSSWLHDIWGQGTMVTVSS VL: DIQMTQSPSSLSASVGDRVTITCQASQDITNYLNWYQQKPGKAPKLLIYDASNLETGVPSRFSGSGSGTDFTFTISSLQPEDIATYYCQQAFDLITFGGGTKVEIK	2720

Need MFI of anti-BCMA parent antibody ADI-34861 (antibody, V domains shown, Tested as IgG (captured by anti-human Fc probe)) VH: QLQLQESGPGLVKPSETLSLTCTVSGGSISSSSYYWGWIRQPPGKGLEWIGSISYSGSTYYNPSLKSRVTISVDTSKNQFSLKLSSVTAADTAVYYCARDRGDTILDVWGQGTMVTVSS VL: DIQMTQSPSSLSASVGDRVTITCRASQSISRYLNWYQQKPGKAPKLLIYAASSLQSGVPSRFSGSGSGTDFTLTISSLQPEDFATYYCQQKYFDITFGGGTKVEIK , thanks. 1000

Need MFI of antibody ADI-38497 (antibody, V domains shown) VH: QLQLQESGPGLVKPSETLSLTCTVSGGSIVSSSYYWTWIRQPPGKGLEWIGSISIAGSTYYNPSLKSRVTISVDTSKNQFSLKLSSVTAADTAVYYCARDRGDQILDVWSQGTMVTVSS VL: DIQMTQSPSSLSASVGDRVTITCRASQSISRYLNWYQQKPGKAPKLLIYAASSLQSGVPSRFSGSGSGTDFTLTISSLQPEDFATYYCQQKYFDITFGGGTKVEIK , thanks. 2320
